# assay.system: wild type (WT) MET kinase (Homo sapiens, UniProt P08581)
# Construct: purchased Carna 08-151
# Sequence (P08581 25-1390): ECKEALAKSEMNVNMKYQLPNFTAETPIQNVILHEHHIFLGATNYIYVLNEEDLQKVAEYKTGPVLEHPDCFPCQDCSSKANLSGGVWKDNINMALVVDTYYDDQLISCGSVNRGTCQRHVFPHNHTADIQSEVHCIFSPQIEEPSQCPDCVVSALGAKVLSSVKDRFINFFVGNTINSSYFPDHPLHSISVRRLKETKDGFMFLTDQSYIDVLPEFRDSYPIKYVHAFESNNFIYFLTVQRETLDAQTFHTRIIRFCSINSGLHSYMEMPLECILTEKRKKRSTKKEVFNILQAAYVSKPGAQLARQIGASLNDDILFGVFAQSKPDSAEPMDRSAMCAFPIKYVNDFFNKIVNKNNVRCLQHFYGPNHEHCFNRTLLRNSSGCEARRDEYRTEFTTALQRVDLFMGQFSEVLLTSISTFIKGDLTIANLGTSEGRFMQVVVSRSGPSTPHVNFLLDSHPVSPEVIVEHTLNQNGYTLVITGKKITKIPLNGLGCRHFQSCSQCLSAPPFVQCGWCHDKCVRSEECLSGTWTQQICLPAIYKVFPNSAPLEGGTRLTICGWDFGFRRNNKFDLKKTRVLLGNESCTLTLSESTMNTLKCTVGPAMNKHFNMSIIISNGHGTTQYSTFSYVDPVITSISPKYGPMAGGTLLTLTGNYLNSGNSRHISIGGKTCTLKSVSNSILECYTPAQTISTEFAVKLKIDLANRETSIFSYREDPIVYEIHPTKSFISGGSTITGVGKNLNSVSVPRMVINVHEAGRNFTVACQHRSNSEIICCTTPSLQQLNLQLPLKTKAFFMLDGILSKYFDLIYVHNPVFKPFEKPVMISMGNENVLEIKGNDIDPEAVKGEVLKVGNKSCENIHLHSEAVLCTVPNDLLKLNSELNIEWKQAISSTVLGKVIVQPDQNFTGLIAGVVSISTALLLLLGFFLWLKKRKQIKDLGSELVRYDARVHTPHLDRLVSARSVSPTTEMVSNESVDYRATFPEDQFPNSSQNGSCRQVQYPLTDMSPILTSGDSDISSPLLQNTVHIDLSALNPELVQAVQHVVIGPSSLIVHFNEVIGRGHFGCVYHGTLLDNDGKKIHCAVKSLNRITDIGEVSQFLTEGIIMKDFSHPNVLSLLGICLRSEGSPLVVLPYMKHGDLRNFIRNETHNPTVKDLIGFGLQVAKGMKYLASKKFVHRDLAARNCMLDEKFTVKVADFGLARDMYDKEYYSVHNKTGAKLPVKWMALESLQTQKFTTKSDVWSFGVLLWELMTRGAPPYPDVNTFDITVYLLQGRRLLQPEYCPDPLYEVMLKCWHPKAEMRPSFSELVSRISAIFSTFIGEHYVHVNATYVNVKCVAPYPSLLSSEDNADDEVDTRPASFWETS
# test.protocol: Kinase inhibition experiment (HTRF KinEASE-TK kit), wild-type MET
# Assay type: biochemical
# experimental.parameters: 10 concentrations, 3-fold dilution
Threshold 3 nM: IC50 strictly smaller gives yes, otherwise no.

Previously resolved entries follow.
{"columns": ["molecule", "assigned.class"],
 "data": [
  ["CCC(O)CNc1n[nH]c2nccc(Oc3ccc(NC(=O)c4cccc(-c5ccc(F)cc5)[n+]4[O-])cc3F)c12 (stereo not shown)", "no"],
  ["O=C(Nc1ccc(Oc2ccnc3[nH]nc(N4CC(CO)C4)c23)c(F)c1)c1cccc(-c2ccc(F)cc2)[n+]1[O-]", "yes"],
  ["O=C(Nc1ccc(Oc2ccnc3[nH]nc(NCC(O)C(F)(F)F)c23)c(F)c1)c1cccc(-c2ccc(F)cc2)[n+]1[O-] (stereo not shown)", "no"],
  ["O=C(Nc1ccc(Oc2ccnc3[nH]nc(N[C@H]4COC[C@@H]4O)c23)c(Cl)c1)c1cccc(-c2ccc(F)cc2)[n+]1[O-]", "yes"],
  ["C[C@H](CO)Nc1n[nH]c2nccc(Oc3ccc(NC(=O)c4ccc(OCC(F)F)c(-c5ccc(F)cc5)[n+]4[O-])cc3Cl)c12", "yes"],
  ["C[C@H](CO)Nc1n[nH]c2nccc(Oc3ccc(NC(=O)c4cccc(-c5ccc(F)cc5)[n+]4[O-])cc3F)c12", "yes"]
]}

Problem: Lab note: confirm whether the reported IC50 for this molecule is below 3 nM, equality not counting. molecule: Cc1ccc(C(=O)Nc2ccc(Oc3ccnc4[nH]nc(N[C@H]5COC[C@@H]5O)c34)c(Cl)c2)[n+]([O-])c1-c1ccc(F)cc1
Solution: yes

Problem: Lookup C[C@H](CO)Nc1n[nH]c2nccc(Oc3ccc(NC(=O)c4ccc(Cl)c(-c5ccc(Cl)cc5)[n+]4[O-])cc3F)c12
Solution: no

Problem: Lookup CC1(CO)CCN(c2n[nH]c3nccc(Oc4ccc(NC(=O)c5cccc(-c6ccc(F)cc6)[n+]5[O-])cc4F)c23)CC1
Solution: no

Problem: Lookup CC[C@H](CO)Nc1n[nH]c2nccc(Oc3ccc(NC(=O)c4cccc(-c5ccc(F)cc5)[n+]4[O-])cc3F)c12
Solution: no

Problem: Lookup [2H]C([2H])([2H])c1ccc(C(=O)Nc2ccc(Oc3ccnc4[nH]nc(N[C@H](C)CO)c34)c(Cl)c2)[n+]([O-])c1-c1ccc(F)cc1
Solution: no

Problem: Lookup CCC(CO)Nc1n[nH]c2nccc(Oc3ccc(NC(=O)c4cccc(-c5ccc(F)cc5)[n+]4[O-])cc3F)c12 (stereo not shown)
Solution: yes

Problem: Lookup COc1ccc2ncnc(Nc3ccc(NC(=O)c4cccc(-c5ccc(F)cc5)[n+]4[O-])cc3F)c2c1O[C@H](C)CO
Solution: no

###

# assay.system: MET D1228N (Homo sapiens, UniProt P08581, D1228N)
# Construct: purchased Signalchem M52-12IG
# Sequence (P08581 25-1390 D1228N): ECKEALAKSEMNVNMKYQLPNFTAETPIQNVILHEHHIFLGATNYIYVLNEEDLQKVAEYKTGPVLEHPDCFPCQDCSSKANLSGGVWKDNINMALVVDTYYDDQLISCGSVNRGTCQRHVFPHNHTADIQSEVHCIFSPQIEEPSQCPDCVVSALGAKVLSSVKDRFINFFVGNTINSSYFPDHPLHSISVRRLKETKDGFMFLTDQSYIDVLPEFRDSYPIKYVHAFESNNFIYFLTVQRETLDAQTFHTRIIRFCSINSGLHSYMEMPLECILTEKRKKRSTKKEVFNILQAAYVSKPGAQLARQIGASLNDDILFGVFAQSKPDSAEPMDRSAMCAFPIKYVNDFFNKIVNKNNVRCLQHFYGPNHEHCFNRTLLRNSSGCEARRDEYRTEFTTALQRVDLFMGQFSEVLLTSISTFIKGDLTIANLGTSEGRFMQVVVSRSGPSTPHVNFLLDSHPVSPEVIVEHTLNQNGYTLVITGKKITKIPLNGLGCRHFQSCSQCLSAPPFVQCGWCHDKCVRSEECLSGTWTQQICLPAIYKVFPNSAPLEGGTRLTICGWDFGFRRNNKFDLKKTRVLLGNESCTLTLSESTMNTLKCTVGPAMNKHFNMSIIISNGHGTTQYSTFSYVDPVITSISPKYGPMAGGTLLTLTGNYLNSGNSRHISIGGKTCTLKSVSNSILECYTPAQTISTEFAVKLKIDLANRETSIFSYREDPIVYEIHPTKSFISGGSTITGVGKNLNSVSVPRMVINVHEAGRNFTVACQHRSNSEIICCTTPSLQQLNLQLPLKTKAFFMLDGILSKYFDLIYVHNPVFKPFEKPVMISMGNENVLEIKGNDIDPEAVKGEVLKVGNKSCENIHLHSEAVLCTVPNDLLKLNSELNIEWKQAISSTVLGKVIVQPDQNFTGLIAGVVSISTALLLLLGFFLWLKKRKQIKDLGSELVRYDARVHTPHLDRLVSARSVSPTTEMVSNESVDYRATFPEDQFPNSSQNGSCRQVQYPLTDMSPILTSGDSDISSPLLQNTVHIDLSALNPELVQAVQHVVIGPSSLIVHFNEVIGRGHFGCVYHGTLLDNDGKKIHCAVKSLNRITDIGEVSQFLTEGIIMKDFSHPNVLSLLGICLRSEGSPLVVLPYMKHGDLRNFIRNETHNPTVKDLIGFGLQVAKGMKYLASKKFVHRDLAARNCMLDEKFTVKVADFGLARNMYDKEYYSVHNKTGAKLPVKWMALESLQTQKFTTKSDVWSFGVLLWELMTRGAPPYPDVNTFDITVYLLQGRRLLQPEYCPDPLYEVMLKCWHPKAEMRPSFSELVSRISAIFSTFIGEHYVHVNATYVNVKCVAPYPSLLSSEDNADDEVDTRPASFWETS
# test.protocol: Kinase inhibition experiment (HTRF KinEASE-TK kit), mutant MET D1228N
# Assay type: biochemical
# experimental.parameters: 10 concentrations, 3-fold dilution
Threshold 20 nM: IC50 strictly smaller gives true, otherwise false.

Previously resolved entries follow.
{"columns": ["compound", "assigned.class"],
 "data": [
  ["O=C(Nc1ccc(Oc2ccnc3[nH]nc(N4CCC(O)CC4)c23)c(F)c1)c1cccc(-c2ccc(F)cc2)[n+]1[O-] [Final product 26]", "true"],
  ["C[C@H](CO)Nc1n[nH]c2nccc(Oc3ccc(NC(=O)c4ccc(S(C)(=O)=O)c(-c5ccc(F)cc5)[n+]4[O-])cc3F)c12 [Final product 87]", "false"]
]}

Problem: Lab note: confirm whether the reported IC50 for this compound is below 20 nM, equality not counting. compound: O=C(Nc1ccc(Oc2ccnc3[nH]nc(N[C@H]4CC[C@@H](O)C4)c23)c(Cl)c1)c1ccc(F)c(-c2ccc(F)cc2)[n+]1[O-] [Final product 119]
Solution: false

Problem: Lookup CC(O)C1CN(c2n[nH]c3nccc(Oc4ccc(NC(=O)c5cccc(-c6ccc(F)cc6)[n+]5[O-])cc4Cl)c23)C1 (stereo not shown) [Final product 107]
Solution: false

Problem: Lookup Cc1ccc(C(=O)Nc2ccc(Oc3ccnc4[nH]nc(N[C@H]5COC[C@@H]5O)c34)c(Cl)c2)[n+]([O-])c1-c1ccc(F)cc1 [Final product 129]
Solution: false

Problem: Lookup C[C@H](CO)Nc1n[nH]c2nccc(Oc3ccc(NC(=O)c4ccc(OCC(F)F)c(-c5ccc(F)cc5)[n+]4[O-])cc3Cl)c12 [Final product 141]
Solution: false

Problem: Lookup C[C@@H](Nc1n[nH]c2nccc(Oc3ccc(NC(=O)c4cccc(-c5ccc(F)cc5)[n+]4[O-])cc3F)c12)C(C)(C)O [Final product 16]
Solution: false

Problem: Lookup CC1(CO)CCN(c2n[nH]c3nccc(Oc4ccc(NC(=O)c5cccc(-c6ccc(F)cc6)[n+]5[O-])cc4F)c23)CC1 [Final product 29]
Solution: true

Problem: Lookup CCC(O)CNc1n[nH]c2nccc(Oc3ccc(NC(=O)c4cccc(-c5ccc(F)cc5)[n+]4[O-])cc3F)c12 (stereo not shown) [Final product 9]
Solution: false

Problem: Lookup COc1ccc(C(=O)Nc2ccc(Oc3ccnc4[nH]nc(N[C@H](C)CO)c34)c(Cl)c2)[n+]([O-])c1-c1ccc(F)cc1 [Final product 138]
Solution: false

Problem: Lookup C[C@H](CO)Cn1ccc2ncnc(Oc3ccc(NC(=O)c4cccc(-c5ccc(F)cc5)[n+]4[O-])cc3F)c21 [Final product 169]
Solution: true

Problem: Lookup O=C(Nc1ccc(Oc2ccnc3[nH]nc(N4CCO[C@@H](CO)C4)c23)c(F)c1)c1cccc(-c2ccc(F)cc2)[n+]1[O-] [Final product 34]
Solution: true

Problem: Lookup O=C(Nc1ccc(Oc2ccnc3[nH]nc(N[C@H]4CC[C@@H](O)C4)c23)c(Cl)c1)c1cccc(-c2ccc(F)cc2)[n+]1[O-] [Final product 114]
Solution: true
